- System: OVCAR-8 ovarian
- experimental_protocol: NCI tumour cell line growth inhibition, 48 h; in the data active = GI50 below about 0.43 µM; inactive = the rest
Outcomes: active, inactive

{"sample_smiles": "O=C([CH-]C(=O)C(F)(F)F)c1ccccc1.O=C([CH-]C(=O)C(F)(F)F)c1ccccc1.[O]=[U+2]=[O]", "system": "OVCAR-8 ovarian", "class_assignment": "inactive"}
{"sample_smiles": "COc1cc(-c2cc(-c3nc4ccc(F)cc4[nH]3)[nH]n2)cc(OC)c1OC", "system": "OVCAR-8 ovarian", "class_assignment": "inactive"}
{"sample_smiles": "NS(=O)(=O)c1ccc(N=Nc2c(O)[nH]c3ccc(Cl)cc23)cc1", "system": "OVCAR-8 ovarian", "class_assignment": "inactive"}
{"sample_smiles": "COc1ccc(/C=C/C(=O)Nc2cc(/C=C\\c3cc(OC)c(OC)c(OC)c3)cc(OC)c2OC)cc1OC", "system": "OVCAR-8 ovarian", "class_assignment": "inactive"}
{"sample_smiles": "O=c1[nH]nc(-c2nn(-c3ccc(Cl)cc3)cc2O)o1", "system": "OVCAR-8 ovarian", "class_assignment": "active"}
{"sample_smiles": "O=C1c2ccccc2S(=O)(=O)N1CSC(=S)N1CCOCC1", "system": "OVCAR-8 ovarian", "class_assignment": "inactive"}
{"sample_smiles": "Nc1c(C(=O)N/N=C/c2ccco2)cnn1-c1ccnc2c(C(F)(F)F)cccc12", "system": "OVCAR-8 ovarian", "class_assignment": "inactive"}
{"sample_smiles": "CC(=O)/C(=C\\c1c(-c2ccccc2)[nH]c2ccccc12)S(C)(=O)=O", "system": "OVCAR-8 ovarian", "class_assignment": "inactive"}
{"sample_smiles": "O=S(=O)(Nc1cc(F)cc(F)c1)c1ccc(-c2cnc(C3CC3)o2)cc1", "system": "OVCAR-8 ovarian", "class_assignment": "inactive"}
{"sample_smiles": "Cn1cc(C2=C(n3ccc4ccccc43)C(=O)NC2=O)c2ccccc21", "system": "OVCAR-8 ovarian", "class_assignment": "inactive"}
